# assay.notes: Antiplatelet activity in human platelet rich plasma assessed as inhibition of ADP-induced platelet aggregation relative to AZD-6140
# Format: functional
quantity.kind: fold change (FC)
Reply: number alone, nothing else.

CCCCCOC(=O)N1CCN(C(=O)[C@H](CCC(=O)O)NC(=O)c2cc(N3CCN(CCC)CC3)cc(-c3ccccc3)n2)CC1 ... 6.3

Summary for this molecule, CCCCCOC(=O)N1CCN(C(=O)[C@H](CCC(=O)O)NC(=O)c2cc(N3CCN(CCOC)CC3)cc(-c3ccccc3)n2)CC1 : fold change (FC) is 2.1

Note to self: fold change (FC) recorded for CCCCCOC(=O)N1CCN(C(=O)[C@H](CCC(=O)O)NC(=O)c2cc(N3CCN(CC(=O)N(CC)CC)CC3)cc(-c3ccccc3)n2)CC1 was 3.2

The molecule CCCCOC(=O)N1CCN(C(=O)[C@H](CCC(=O)O)NC(=O)c2cc(N3CCC(C(=O)NC(C)C)CC3)cc(-c3ccccc3)n2)CC1 showed fold change (FC) equal to 0.82

Entry under test: CCCCCOC(=O)N1CCN(C(=O)[C@H](CCC(=O)O)NC(=O)c2cc(N3CC(C(=O)NCC)C3)cc(-c3ccccc3)n2)CC1 . Its fold change (FC) was 1.5

For this molecule ( CCCCOC(=O)N1CCN(C(=O)[C@H](CCC(=O)O)NC(=O)c2cc(N3CCC(CN4CCCC4)CC3)cc(-c3ccccc3)n2)CC1 ), measured fold change (FC) is 1

Lookup result for CCCCCOC(=O)N1CCN(C(=O)[C@H](CCC(=O)O)NC(=O)c2cc(N3CCN(CCN(C)C)CC3)cc(-c3ccccc3)n2)CC1 ; measured fold change (FC): 0.7
